Every entry's value here was drawn from patent US20230002359A1.

Test system: Chilo suppressalis (Striped Rice Stemborer)
Assay: Example B3: Chilo suppressalis (striped rice stemborer), artificial diet, L2 larvae
Type: in vivo
Details: 144 h, application rate of 200 ppm, 6 days after infestation, L2 larvae, read-out: control in at least one of the three categories (mortality, anti-feedant effect, or growth inhibition)
// percent control (mortality, anti-feedant effect or growth inhibition) at 200 ppm lookup, one value per entry
measurement.type: percent control (mortality, anti-feedant effect or growth inhibition) at 200 ppm

[[record]]
molecule = "C[C@@H](c1ncnn1-c1ncccn1)N(C)c1ncnc2c(OC(F)F)cc(Cl)cc12"
value_reported = "≥ 80%"

[[record]]
molecule = "CC(Nc1ncnc2c(C(F)(F)F)cc(Br)cc12)c1ncnn1-c1ncccn1 (stereo not drawn)"
value_reported = "≥ 80%"

[[record]]
molecule = "CC(c1nccnc1-c1ccc(OC(F)F)cn1)N(C)c1ncnc2c(C(F)(F)F)cc(Br)cc12 (stereo not drawn)"
value_reported = "≥ 80%"

[[record]]
molecule = "CC(Nc1ncnc2c(Br)cc(Cl)cc12)c1nccnc1-c1ncccn1 (stereo not drawn)"
value_reported = "≥ 80%"

[[record]]
molecule = "CC(Nc1ncnc2c(C(F)(F)F)cc(Cl)cc12)c1nccnc1-c1ccc(OC(F)F)cn1 (stereo not drawn)"
value_reported = "≥ 80%"

[[record]]
molecule = "C[C@@H](c1ncnn1-c1ncccn1)N(C)c1c(F)cnc2c(C(F)(F)F)cc(C(F)(F)F)cc12"
value_reported = "≥ 80%"


* * *

Tested on: Chilo suppressalis (Striped Rice Stemborer)
Experiment: Example B3: Chilo suppressalis (striped rice stemborer), artificial diet, L2 larvae
Type: in vivo
Conditions: 144 h, application rate of 200 ppm, 6 days after infestation, L2 larvae, read-out: control in at least one of the three categories (mortality, anti-feedant effect, or growth inhibition)
measurement.type: percent control (mortality, anti-feedant effect or growth inhibition) at 200 ppm

[[record]]
molecule = "CC(Nc1ncnc2c(Br)cc(OC(F)(F)F)cc12)c1nccnc1-c1ncccn1 (centres unmarked) [P.12]"
value_reported = "≥ 80%"

[[record]]
molecule = "C[C@H](Nc1ccnc2c(C(F)(F)F)cc(Br)cc12)c1ncnn1-c1ncccn1 [P.253]"
value_reported = "≥ 80%"

[[record]]
molecule = "CC(c1ncnn1-c1ccc(OC(F)F)cn1)N(C)c1ncnc2c(C(F)(F)F)cc(Br)cc12 (centres unmarked) [P.194]"
value_reported = "≥ 80%"

[[record]]
molecule = "CC(Nc1ncnc2c(C(F)(F)F)cc(C(F)(F)F)cc12)c1ncnn1-c1ncccn1 (centres unmarked) [P.16]"
value_reported = "≥ 80%"

[[record]]
molecule = "CC(Nc1ncnc2c(Cl)cc(C(F)(F)F)cc12)c1ncnn1-c1ccc(F)cn1 (centres unmarked) [P.274]"
value_reported = "≥ 80%"

[[record]]
molecule = "CC(c1nc(Br)nn1-c1ncccn1)N(C)c1ncnc2c(Cl)cc(C(F)(F)F)cc12 (centres unmarked) [P.207]"
value_reported = "≥ 80%"

[[record]]
molecule = "C[C@@H](c1ncnn1-c1ncccn1)N(CC1CC1)c1ncnc2c(C(F)(F)F)cc(Cl)cc12 [P.265]"
value_reported = "≥ 80%"

[[record]]
molecule = "CC(Nc1ncnc2c(C(F)(F)F)cc(Br)cc12)c1ncnn1-c1ccc(C#N)cn1 (centres unmarked) [P.63]"
value_reported = "≥ 80%"

